So I've got a bunch of molecules here, and I need their pKi values.
target: human 5-HT1A-serotonergic receptor (Homo sapiens); construct: expressed in transfected cells; host or cells: HeLa (human), stably transfected; membrane preparation; assay: Radioligand binding to recombinant 5-HT1A receptors ([3H]8-OH-DPAT, HeLa cell membranes); settings: 1 nM [3H]8-OH-DPAT; Ki from IC50 by Cheng & Prusoff; read-out: Ki, binding affinity for 5-HT1A receptors
Give bare numbers, as −log10 of the molar value.

Okay, here is my list. What is pKi for each of these?
1. C#CCOC(C1CCCCC1)C(CCN1CCN(c2ccc(F)cc2OC)CC1)c1ccccc1 (stereo not shown) [Example 24]
2. CCCC(O)C(CCN1CCN(c2cccc3c2OCCO3)CC1)c1ccccc1 (stereo not shown) [Example 27]
3. O=C(C1CCCCC1)C(CCN1CCN(c2cccc3[nH]ccc23)CC1)c1ccccc1OC(F)(F)F (stereo not shown) [Example 44]
4. COc1cc(F)ccc1N1CCN(CCC(c2ccccc2)C(OC)C2CCCCC2)CC1 (stereo not shown) [Example 18]

1. 9.19
2. 8.96
3. 8.94
4. 9.09

* * *

molecular target: 5-HT1A receptors (Rattus norvegicus); construct: stereotyped forepaw treading induced in rats by subcutaneous injection of 8-OH-DPAT; from tissue; host or cells: whole animal (male Sprague-Dawley rats), endogenous post-synaptic receptors; assay: Inhibition of stereotypy (rhythmic forepaw treading) induced by 8-OH-DPAT in rats (post-synaptic antagonism); type: in vivo; details: 10 mg/kg p.o., given 1 h before 8-OH-DPAT (1 mg/kg s.c.)
Sequence (P19327 whole entry): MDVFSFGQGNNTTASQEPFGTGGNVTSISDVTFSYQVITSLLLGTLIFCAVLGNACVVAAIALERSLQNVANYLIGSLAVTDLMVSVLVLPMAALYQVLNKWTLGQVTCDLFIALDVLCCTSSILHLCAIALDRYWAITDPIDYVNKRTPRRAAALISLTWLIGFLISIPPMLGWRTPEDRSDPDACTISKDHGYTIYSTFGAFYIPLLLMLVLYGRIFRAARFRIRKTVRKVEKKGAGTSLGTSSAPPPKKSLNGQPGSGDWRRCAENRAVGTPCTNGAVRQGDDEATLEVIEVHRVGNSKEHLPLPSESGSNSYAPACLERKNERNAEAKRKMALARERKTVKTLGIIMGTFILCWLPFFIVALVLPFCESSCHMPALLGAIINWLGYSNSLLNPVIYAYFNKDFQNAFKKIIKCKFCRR
So I've got a bunch of compounds here, and I need their % Inhibition of forepaw treading, 1 h values.
One number for each entry, in %.

Worked set:
* COc1ccccc1N1CCN(CC[C@H](c2ccccc2F)[C@@H](OC(C)=O)C2CCCCC2)CC1 (racemic) | 100
* COc1ccccc1N1CCN(CC[C@H](c2ccccc2F)[C@@H](OC(N)=O)C2CCCCC2)CC1 (racemic) | 90
* COc1cc(F)ccc1N1CCN(CCC(c2ccccc2C#N)C(O)C2CCCCC2)CC1 (centres unmarked) | 40
* CC#CC(O)C(CCN1CCN(c2cccc3c2OCCO3)CC1)c1ccccc1 (centres unmarked) | 60

Short answer for CCNC(=O)O[C@@H](C1CCCCC1)[C@H](CCN1CCN(c2ccccc2OC)CC1)c1ccccc1F (racemic) : % Inhibition of forepaw treading, 1 h was 56

* * *

Target: human 5-HT1A-serotonergic receptor (Homo sapiens)
Construct: membrane preparation
Sequence (P08908 1-422): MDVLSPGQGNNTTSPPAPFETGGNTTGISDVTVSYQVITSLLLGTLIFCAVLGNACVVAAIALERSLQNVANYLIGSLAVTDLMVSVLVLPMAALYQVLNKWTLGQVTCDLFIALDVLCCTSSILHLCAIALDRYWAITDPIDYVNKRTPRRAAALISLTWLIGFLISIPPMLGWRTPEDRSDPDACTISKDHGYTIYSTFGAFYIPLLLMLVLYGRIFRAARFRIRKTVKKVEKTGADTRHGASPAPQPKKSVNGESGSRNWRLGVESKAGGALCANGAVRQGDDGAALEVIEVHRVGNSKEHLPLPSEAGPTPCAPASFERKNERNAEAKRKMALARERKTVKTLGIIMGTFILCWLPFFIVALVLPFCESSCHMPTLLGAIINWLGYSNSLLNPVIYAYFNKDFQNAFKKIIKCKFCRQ
Experiment: Radioligand binding to recombinant 5-HT1A receptors ([3H]8-OH-DPAT, HeLa cell membranes)
Conditions: 1 nM [3H]8-OH-DPAT; Ki from IC50 by Cheng & Prusoff; read-out: Ki, binding affinity for 5-HT1A receptors
So I've got a bunch of compounds here, and I need their pKi values.
One number for each entry, as −log10 of the molar value.

Worked set:
* OCC(CCN1CCN(c2cccc3c2OCCO3)CC1)c1ccccc1 (centres unmarked) [Example 37] | 8.30
* CC=CC(O)C(CCN1CCN(c2cccc3c2OCCO3)CC1)c1ccccc1 (centres unmarked) [Example 32] | 8.45
* CCC(O)C(CCN1CCN(c2cccc3c2OCCO3)CC1)c1ccccc1 (centres unmarked) [Example 26] | 8.58
* N#Cc1ccccc1[C@@H](CCN1CCN(c2cccc3c2OCCO3)CC1)[C@@H](O)C1CCCCC1 (racemic) [Example 14] | 9.40

The record that follows has no pKi shown yet.
Item CCNC(=O)O[C@@H](C1CCCCC1)[C@H](CCN1CCN(c2ccccc2OC)CC1)c1ccccc1F (racemic) [Example 47] ; assay system human 5-HT1A-serotonergic receptor (Homo sapiens); pKi reported as 9.07
